Listed below: activity, negative = inhibition values for each entry.
Test: qHTS profiling for inhibitors of Plasmodium falciparum proliferation (AID 504749);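 note: 0% = DMSO vehicle and full inhibition = artemisinin control; nearly all actives have a fitted effect of over 60% in size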
Conditions: P. falciparum in erythrocytes, SYBR Green DNA, 72 h; at 12.8 µM (top of the series); parasite line A
Experimental: NIH National Institute of Allergy and Infectious Diseases [NIAID] NIH Chemical Genomics Center [NCGC] […] Because mature erythrocytes lack DNA, only Plasmodium-derived DNA is detected. NCGC Assay Protocol Summary: The SYBR Green viability assay was adapted from a method described previously (Plouffe et al., 2008). […] The following morning, fluorescence intensity at 485(14) nm excitation and 535(25) nm emission wavelengths was measured on an EnVision (Perkin Elmer) plate reader. […]
Inconclusive results are not listed. Calls of active or inactive are those of the source. Calls come from the whole dose curve; as a rule, active = well fitted inhibition curve with a large enough effect; inconclusive = small, poorly fitted or top-dose-only effect; inactive = flat fitted curve, though single readings scatter.
measurement.name: activity, negative = inhibition

INSERT INTO results (smiles_input, reported_result) VALUES
  ('CCC[C@H]1C(=O)N2C(N(C)C)=Nc3ccc(C)cc3N2C1=O', '12.2% (inactive)'),
  ('COc1ccccc1OC[C@H](O)COC(N)=O', '3.95% (inactive)'),
  ('CC(=O)O[C@@H](C)C[N+](C)(C)C', '0.161% (inactive)'),
  ('CC[C@@]12CCCN3CCc4c(n(c5ccccc45)C(=O)C1)[C@H]32', '14.8% (inactive)'),
  ('CC(=O)Nc1c(I)c(C(=O)N[C@H]2[C@@H](O)[C@H](O)[C@H](CO)O[C@@H]2O)c(I)c(N(C)C(C)=O)c1I', '8.5% (inactive)'),
  ('CN(N=O)C(=O)N[C@H]1[C@@H](O)[C@H](O)[C@H](CO)O[C@@H]1O', '2.49% (inactive)'),
  ('C[C@@H]1CCC[C@H](C)N1NC(=O)c1ccc(Cl)c(S(N)(=O)=O)c1', '12.8% (inactive)'),
  ('CCN1C(=O)N[C@@H](c2ccccc2)C1=O', '-3.65% (inactive)');

---

Listed below: activity change, negative = inhibition values for each entry.
Experiment: NFAT Signaling Pathway (AID 444);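 note: carbachol stimulus at about its EC50 of 1 µM final; % is set by controls: 0 for no effect and ±100 for the full control effect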
Details: Jurkat NFAT-bla M1, carbachol, beta-lactamase ratio, 5 h; at 7.69 µM (top of the series) unless noted
Records with an inconclusive call do not appear. Active and inactive are the calls of the source. Calls follow the shape of the dose curve; as a rule, active = well fitted curve in either direction with a large enough effect (not every such curve was filed as active); inconclusive = small, poorly fitted or top-dose-only effect, or another doubt; inactive = flat fitted curve, though single readings scatter.
measurement.name: activity change, negative = inhibition

INSERT INTO results (smiles_input, reported_result) VALUES
  ('c1cncc(-c2ccc3ncnc(NC4CCNCC4)c3c2)c1', '13.2% (inactive)'),
  ('N#Cc1cccc(-c2nc(NCc3cccnc3)c3ccccc3n2)c1', '28.2% (inactive)'),
  ('O=C(O)/C=C\c1ccc(O)c(O)c1', '-7.46% [at 38 µM] (inactive)'),
  ('Cc1noc(C)c1C(=O)N1CCC[C@@]2(CCN(Cc3ccc(C#N)cc3)C2)C1', '17.1% (inactive)'),
  ('Cc1ccccc1-c1nc(N2CCOCC2)c2ccccc2n1', '-2.19% (inactive)'),
  ('O=c1c(CCc2ccccc2)nc2cnc(N3CCOCC3)nc2n1C1CC1', '4.06% (inactive)'),
  ('O=C(c1cccc(F)c1)N1CCC[C@@]2(CCN(c3ncccn3)C2)C1', '10.1% (inactive)'),
  ('COc1ccccc1CCn1c(=O)c(C)nc2cncnc21', '6.15% (inactive)'),
  ('CN(C)Cc1ccccc1-c1nccc(N(C)Cc2ccco2)n1', '-23.2% (inactive)'),
  ('COc1ccc(CNc2ccnc(-c3cccnc3)n2)c(OC)c1', '-0.132% (inactive)'),
  ('N#Cc1cccc(-c2nccc(NCc3cccs3)n2)c1', '11.9% (inactive)'),
  ('COCCn1c(=O)c(-c2cccc(C#N)c2)nc2cnc(Oc3ccc(OC)cc3)nc21', '7% (inactive)'),
  ('COc1ccc2[nH]cc(CCNc3ccnc(-c4ccc5c(c4)OCO5)n3)c2c1', '-4.51% (inactive)'),
  ('CN(C)Cc1ccccc1-c1nccc(Nc2ccc(F)cc2)n1', '-13.9% (inactive)'),
  ('COC(=O)N1CCC2(CC1)CCN(c1ncccn1)CC2', '-23.4% (inactive)'),
  ('COc1cccc(Nc2ncc3ncc(=O)n(C)c3n2)c1', '0.44% (inactive)'),
  ('CS(=O)(=O)Nc1cccc(-c2nc(NC3CC3)c3ccccc3n2)c1', '0.73% (inactive)'),
  ('CN1CCN(c2ncnc3ccc(-c4cccnc4)cc23)CC1', '17% (inactive)'),
  ('COc1ccc2[nH]cc(CCNc3nc(-c4ccccc4CN(C)C)nc4ccccc34)c2c1', '-26.8% (inactive)'),
  ('COc1cccc(-c2cc(NCc3ccccc3)ncn2)c1', '13.6% (inactive)'),
  ('CC(=O)NCCNc1ncnc2ccc(-c3ccc(C(=O)N(C)C)cc3)cc12', '-1.21% (inactive)'),
  ('COc1ncc2nc(CCc3ccccc3)c(=O)n(Cc3cccs3)c2n1', '-5.02% (inactive)'),
  ('O=C(Nc1ccccc1)N1CCCC2(CCNCC2)C1', '6.49% (inactive)'),
  ('COCCn1c(=O)c(-c2ccc(F)c(F)c2)nc2cncnc21', '-12.1% (inactive)'),
  ('COc1ccccc1-c1nc(NCc2cnc(C)cn2)c2ccccc2n1', '2.11% (inactive)'),
  ('COc1ccc(Oc2ncc3nc(CCc4ccccc4)c(=O)n(C)c3n2)cc1', '2.43% (inactive)'),
  ('Cn1cccc1C(=O)N1CCC2(CC1)CN(C(=O)Nc1cccc(C#N)c1)C2', '-2.19% (inactive)'),
  ('N#Cc1cccc(-c2nc3cnc(N4CCOCC4)nc3n(Cc3ccc(F)cc3)c2=O)c1', '27.2% (inactive)'),
  ('COc1ccc(Oc2ncc3nc(-c4cccs4)c(=O)n(-c4ccccc4)c3n2)cc1', '8.33% (inactive)'),
  ('COc1ccc(-n2c(=O)c(CCc3ccccc3)nc3cnc(N4CCN(C)CC4)nc32)cc1', '-24% (inactive)'),
  ('COc1ccccc1CNc1ncncc1-c1ccc(C(=O)N(C)C)cc1', '1.11% (inactive)'),
  ('Cc1ccccc1-c1cncnc1NC1CCNCC1', '-1.26% (inactive)'),
  ('COc1ccc2[nH]cc(CCNc3ncncc3-c3cccc(NS(C)(=O)=O)c3)c2c1', '15.3% (inactive)'),
  ('O=C(c1ccco1)N1CCC2(CCCN(c3ncccn3)C2)CC1', '-1.96% (inactive)'),
  ('c1cc(NC2CC2)nc(-c2ccoc2)n1', '-10.6% (inactive)'),
  ('O=c1c(-c2ccc(F)cc2)nc2cnc(Nc3ccccc3)nc2n1C1CC1', '-2.3% (inactive)'),
  ('CCCN[C@@H](C)C(=O)Nc1c(C)csc1C(=O)OC', '-13.1% [at 17.2 µM] (inactive)'),
  ('CN1CCN(c2ncncc2-c2ccc(N(C)C)cc2)CC1', '6.42% (inactive)'),
  ('COc1ccc(CNc2cc(-c3cccnc3)ncn2)c(OC)c1', '10.5% (inactive)'),
  ('O=c1c(-c2cc(F)cc(F)c2)nc2cnc(Oc3ccccc3)nc2n1C1CC1', '-0.993% (inactive)'),
  ('CC(=O)N1CCC2(CC1)CCN(c1ccccc1)CC2', '-0.227% (inactive)'),
  ('COC(=O)N1CCC2(CC1)CN(C(=O)Nc1cccc(F)c1)C2', '0.322% (inactive)'),
  ('COCCNc1nc(-c2c(C)noc2C)nc2ccccc12', '22.9% (inactive)'),
  ('COCCNc1ccnc(-c2c(C)noc2C)n1', '9% (inactive)'),
  ('CN(C)c1nc(-c2ccccc2C(F)(F)F)nc2ccccc12', '0.537% (inactive)'),
  ('CC(=O)NCCNc1nc(-c2c(C)noc2C)nc2ccccc12', '6.76% (inactive)'),
  ('CN(C)C(=O)c1ccc(-c2cncnc2NCc2ccccc2)cc1', '-3.31% (inactive)');
